The origin of these recorded values is patent US20210087281A1.

Listed below: protection from staurosporine, viability EMAX, MCF10A cells values for each entry.
Target: native human MET on living cells (human, UniProt P08581 25-1390)
Sequence (P08581 25-1390): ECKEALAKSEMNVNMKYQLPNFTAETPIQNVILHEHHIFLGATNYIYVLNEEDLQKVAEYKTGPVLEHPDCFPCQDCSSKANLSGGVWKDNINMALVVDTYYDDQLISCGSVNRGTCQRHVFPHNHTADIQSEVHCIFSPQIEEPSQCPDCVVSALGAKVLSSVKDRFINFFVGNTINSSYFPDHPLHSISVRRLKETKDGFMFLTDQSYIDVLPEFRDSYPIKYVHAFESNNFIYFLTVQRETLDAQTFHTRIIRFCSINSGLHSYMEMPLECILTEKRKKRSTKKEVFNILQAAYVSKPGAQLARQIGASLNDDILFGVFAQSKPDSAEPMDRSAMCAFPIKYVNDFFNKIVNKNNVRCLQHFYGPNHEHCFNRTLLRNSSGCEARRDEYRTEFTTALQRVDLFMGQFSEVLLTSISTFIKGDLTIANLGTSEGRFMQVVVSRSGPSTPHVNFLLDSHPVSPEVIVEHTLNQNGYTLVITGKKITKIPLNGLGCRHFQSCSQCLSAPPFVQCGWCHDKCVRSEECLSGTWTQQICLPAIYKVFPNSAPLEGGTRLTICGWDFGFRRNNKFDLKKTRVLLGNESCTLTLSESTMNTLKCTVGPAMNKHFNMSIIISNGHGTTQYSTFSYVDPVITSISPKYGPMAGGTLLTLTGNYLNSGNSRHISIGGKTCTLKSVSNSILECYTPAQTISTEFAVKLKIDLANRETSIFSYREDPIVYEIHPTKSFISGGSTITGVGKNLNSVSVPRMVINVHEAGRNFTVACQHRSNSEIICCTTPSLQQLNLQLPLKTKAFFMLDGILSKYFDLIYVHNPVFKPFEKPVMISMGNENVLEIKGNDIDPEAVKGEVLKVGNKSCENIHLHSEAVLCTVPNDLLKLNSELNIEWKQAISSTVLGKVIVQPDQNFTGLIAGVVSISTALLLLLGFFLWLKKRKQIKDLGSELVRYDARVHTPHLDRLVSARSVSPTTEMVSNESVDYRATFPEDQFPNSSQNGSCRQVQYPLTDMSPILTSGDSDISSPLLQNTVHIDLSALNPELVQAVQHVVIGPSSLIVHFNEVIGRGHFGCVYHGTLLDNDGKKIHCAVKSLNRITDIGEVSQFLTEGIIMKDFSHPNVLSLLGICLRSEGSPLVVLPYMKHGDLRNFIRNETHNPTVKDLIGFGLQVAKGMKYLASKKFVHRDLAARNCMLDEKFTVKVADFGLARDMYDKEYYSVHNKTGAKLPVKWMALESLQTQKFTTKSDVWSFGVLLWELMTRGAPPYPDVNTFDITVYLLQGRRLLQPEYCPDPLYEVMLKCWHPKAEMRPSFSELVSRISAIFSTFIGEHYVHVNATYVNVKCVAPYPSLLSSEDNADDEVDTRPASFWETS
Experiment: cell-based or functional assay
OUTCOME_MEASURE: protection from staurosporine, viability EMAX, MCF10A cells (%)

{"columns": ["BINDER", "OBSERVED_VALUE"],
 "data": [
  ["71G12 chimeric llama-human IgG1 mAb (antibody, V domains shown, llama VH on human IgG1 CH1-CH2-CH3, llama VL on human kappa CL) VH: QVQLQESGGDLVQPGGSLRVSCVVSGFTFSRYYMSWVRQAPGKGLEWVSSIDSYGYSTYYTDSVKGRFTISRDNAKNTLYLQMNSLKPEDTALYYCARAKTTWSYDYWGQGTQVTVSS VL: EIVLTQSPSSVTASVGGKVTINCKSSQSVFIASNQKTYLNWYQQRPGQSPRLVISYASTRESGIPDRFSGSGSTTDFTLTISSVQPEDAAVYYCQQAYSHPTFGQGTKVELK", 39.4],
  ["71G2 chimeric llama-human IgG1 mAb (antibody, V domains shown, llama VH on human IgG1 CH1-CH2-CH3, llama VL on human lambda CL) VH: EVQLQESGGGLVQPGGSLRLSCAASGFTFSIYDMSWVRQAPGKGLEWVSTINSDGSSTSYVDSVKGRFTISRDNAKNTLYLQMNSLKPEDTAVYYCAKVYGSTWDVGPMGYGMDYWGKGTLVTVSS VL: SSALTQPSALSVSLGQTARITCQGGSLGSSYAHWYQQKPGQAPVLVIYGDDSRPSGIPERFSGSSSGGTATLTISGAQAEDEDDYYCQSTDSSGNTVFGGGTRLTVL", 64.8]
]}
